target: 4H_GCN4; assay: two-hybrid library CCmax;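 note: natural log of median RNA to DNA barcode read ratio; higher means stronger binding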
Sequence (chain, as listed by the source): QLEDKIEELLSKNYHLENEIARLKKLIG
measured_endpoint: interaction score
// no unit, no text: just the number

# lookup: interaction score of DENAALEAEIAALKAENAALEAKIAALKG [4H1110-AA] -0.932

What measured interaction score goes with DKIAALKAENAALKAENAALEAKIAALKG [4H2774-AA] ? -2.24

Would you kindly share the measured interaction score for DEIAALEAKNAALKAEIAALEAENAALKG [4H452-AA] ? -0.935

I am curious: what interaction score value has been reported for DEIAALKAKIAALKAKNAALKAKNAALEG [4H895-AA] ? -1.86

Give its interaction score value. Item: DKNAALKAKNAALKAEIAALEAKIAALKG [4H4038-AA] -1.46

Consider the binder DENAALEAKIAALKAKIAALKAEIAALEG [4H1385-AA] and give its measured interaction score. -1.45

Request the reported interaction score associated with DKIAALKAKNAALKAEIAALEAKNAALEG [4H3015-AA] -1.28
